Entries annotated with measured cytotoxicity at 70.5 h
assay: Human HepG2 cell viability assay in 384 well format; type: toxicity, cell-based; design: dose 125 nL, time 70.5 hour; concentration not given beside the values; details: HepG2 cells, read-out: Inhibition
Enter your answer as a number in %; do not include the unit.

Reference set (5 entries):
Sample NCCN1C(=O)CC[C@H]2CN(Cc3ccc4occc4c3)CC[C@H]21 ; cytotoxicity at 70.5 h observed: -8.13

Sample CN(CCn1cnc(-c2ccccc2)c1-c1ncc[nH]1)S(C)(=O)=O ; cytotoxicity at 70.5 h observed: 7.51

Sample NC(=O)c1cccc(CS(=O)(=O)CC(O)Cn2cccn2)c1 (stereo unspecified) ; cytotoxicity at 70.5 h observed: -4.59

Sample Cc1cccc(N(CCC(N)=O)CC(=O)Nc2ccccc2)c1 ; cytotoxicity at 70.5 h observed: 0.933

Sample Cc1cc(C(=O)NCc2ccnc(N3CCN(C)CC3)c2)c(C)s1 ; cytotoxicity at 70.5 h observed: -18

Further cases:
Sample COCCN1CCC(CNC(=O)CCc2cc(F)ccc2F)C1 (stereo unspecified) ; cytotoxicity at 70.5 h observed: -4.52

Sample Cc1cccc(CN2CCCn3c(nnc3Cn3cccn3)C2)n1 ; cytotoxicity at 70.5 h observed: 10.9

Sample CNc1cc2c(nn1)CCN(C(=O)c1cccc3c1OCO3)C2 ; cytotoxicity at 70.5 h observed: -16.7

Sample COCCC(=O)N1C[C@H]2CCC[C@@]2(COC)C1 ; cytotoxicity at 70.5 h observed: -6.36

Sample c1cnc(N2CCC3(CCN(CC4CCOCC4)CC3)C2)nc1 ; cytotoxicity at 70.5 h observed: 0.659

Sample FC(F)(F)CN1CCC(CCNc2ncccn2)CC1 ; cytotoxicity at 70.5 h observed: 0.447

Sample Cc1nn(Cc2ccc(C(=O)NCCCN3CCOCC3)o2)c(C)c1Cl ; cytotoxicity at 70.5 h observed: 24.8

Sample Cc1ccc(CN(C)C)cc1NC(=O)C1CC=CC1 ; cytotoxicity at 70.5 h observed: -3.31

Sample Cc1ccc(C(=O)NCCNS(C)(=O)=O)c(=O)[nH]1 ; cytotoxicity at 70.5 h observed: -3.54

Sample CCC(=O)N1CCC2(CC1)CC(NC(=O)N(C)C)c1cc(C)ccc12 (stereo unspecified) ; cytotoxicity at 70.5 h observed: -5.76

Sample CCc1ncc(C(=O)N2CC(N3CCCCC3)C2)cn1 ; cytotoxicity at 70.5 h observed: 25.6

Sample COc1ccc(C(=O)NS(=O)(=O)c2ccc(CNC(C)=O)s2)cc1 ; cytotoxicity at 70.5 h observed: -4.22

Sample Cn1cc(-c2ncc3c(c2C(=O)O)CCN(Cc2ccco2)C3)cn1 ; cytotoxicity at 70.5 h observed: -5.93
